# assayed target: T1, VPAC1 receptor (UniProt P32241 31-457, limits assumed)
# T1 sequence (looked up): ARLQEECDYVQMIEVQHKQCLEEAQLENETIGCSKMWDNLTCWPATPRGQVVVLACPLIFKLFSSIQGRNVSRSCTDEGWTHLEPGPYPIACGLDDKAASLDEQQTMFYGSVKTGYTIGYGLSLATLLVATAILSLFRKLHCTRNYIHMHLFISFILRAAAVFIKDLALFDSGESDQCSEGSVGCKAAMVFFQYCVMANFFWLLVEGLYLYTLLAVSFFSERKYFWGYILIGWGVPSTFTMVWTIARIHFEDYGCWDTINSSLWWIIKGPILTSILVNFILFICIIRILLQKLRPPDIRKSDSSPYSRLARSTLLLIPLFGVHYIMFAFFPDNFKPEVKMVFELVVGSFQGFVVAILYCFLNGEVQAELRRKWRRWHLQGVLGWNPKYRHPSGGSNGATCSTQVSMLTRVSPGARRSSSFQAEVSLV
# test details: cell-based or functional assay
value type: EC50 (VPAC1R), cAMP inducing effect (nM)
Enter your answer as a number in nM; do not include the unit.

Recorded EC50 (VPAC1R), cAMP inducing effect, per entry:
{"binder": "HSXGIFTXSYSRYRKQLAAKKYLAAVL (N-terminal acetyl (Ac-); Tz (aspartic acid with carboxyl group replaced by tetrazole) at positions 3 and 8; C-terminal amide (NH2)) [Peptide 19]", "EC50 (VPAC1R), cAMP inducing effect (nM)": 0.044}
{"binder": "HSXGIFTXAYSRYRKQLAVKKYLAAVL (N-terminal acetyl (Ac-); Tz (aspartic acid with carboxyl group replaced by tetrazole) at positions 3 and 8; C-terminal amide (NH2)) [Peptide 15]", "EC50 (VPAC1R), cAMP inducing effect (nM)": 0.149}
{"binder": "HSXGIFTXSYSRYRKQMAVKKYLAAVL (Tz (aspartic acid with carboxyl group replaced by tetrazole) at positions 3 and 8; C-terminal amide (NH2)) [Peptide 5]", "EC50 (VPAC1R), cAMP inducing effect (nM)": 0.064}

# evaluate next
IN: Consider the binder HSXAIFTXSYSRYRKQLAVKKYLAAVL (N-terminal acetyl (Ac-); Tz (aspartic acid with carboxyl group replaced by tetrazole) at positions 3 and 8; C-terminal amide (NH2)) [Peptide 23] and give its measured EC50 (VPAC1R), cAMP inducing effect.
OUT: 0.072

The values you see were collected from patent US20220202905A1.
